# IC50 listing for each entry below
Target: human plasma kallikrein (Homo sapiens)
Construct: purchased Enzyme Research Laboratories HPKa 1303
Sequence (P03952 20-390 limits assumed): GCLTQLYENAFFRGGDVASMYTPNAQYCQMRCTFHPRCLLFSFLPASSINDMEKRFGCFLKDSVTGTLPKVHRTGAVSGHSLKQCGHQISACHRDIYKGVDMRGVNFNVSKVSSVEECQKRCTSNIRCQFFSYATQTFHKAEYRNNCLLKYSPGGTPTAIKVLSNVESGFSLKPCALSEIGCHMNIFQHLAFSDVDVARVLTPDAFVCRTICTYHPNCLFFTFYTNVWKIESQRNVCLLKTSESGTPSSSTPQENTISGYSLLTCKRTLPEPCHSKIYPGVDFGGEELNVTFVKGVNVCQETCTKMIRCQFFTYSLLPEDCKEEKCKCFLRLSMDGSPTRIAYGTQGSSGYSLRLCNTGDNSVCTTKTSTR
Sequence (P03952 391-638 limits assumed): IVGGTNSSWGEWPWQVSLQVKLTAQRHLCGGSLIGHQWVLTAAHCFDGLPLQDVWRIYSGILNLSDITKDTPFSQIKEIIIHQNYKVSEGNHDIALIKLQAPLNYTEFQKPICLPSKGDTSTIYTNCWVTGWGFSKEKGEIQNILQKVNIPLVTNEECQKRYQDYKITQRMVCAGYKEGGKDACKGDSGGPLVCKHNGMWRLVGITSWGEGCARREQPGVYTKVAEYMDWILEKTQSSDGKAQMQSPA
Assay: Enzyme inhibition assay (fluorogenic substrate H-Pro-Phe-Arg-AMC)
Format: biochemical
Conditions: Kallikrein inhibitory activity; 1 nM activated human kallikrein, 500 μM H-Pro-Phe-Arg-AMC, 1 hour room temperature; read-out: Avg. IC50
Numbered stars: 1 amine (or outer) side, 2 acyl side, 3 side chain; on linkers, the order of the positions; unused ones are H or OH. Bridge positions count the residues as written; N and C are the ends. Square brackets hold non-standard residues; d marks the D form. Peptide text beside a SMILES is read from it. X3 = O=C(C(Cc1ccc(Br)s1)N[*:1])[*:2]; mXylylene = c1cc(C[*:1])cc(C[*:2])c1; dPhg = N[C@@H](C(=O)O)c1ccccc1; Tle = CC(C)(C)[C@H](N)C(=O)O; NMeA = CN[C@@H](C)C(=O)O; Mpa = O=C(O)CCS

compound="CC(C)(C)[C@H](NC(=O)C(Cc1ccc(Br)s1)NC(=O)[C@@H]1CSCc2cccc(c2)CSCCC(=O)N2CCC[C@H]2C(=O)N[C@H](c2ccccc2)C(=O)N1)C(N)=O (stereo partly drawn) [Compound R2220] ([Mpa]P[dPhg]C[X3][Tle]-NH2; linker 1-4 via mXylylene)" property_measured=IC50 result="> 100 µM"

stdin: Give the value of IC50 reported for the following: CC[C@H](C)[C@@H]1NC(=O)[C@H](CO)NC(=O)[C@H](CCC(=O)O)NC(=O)[C@@H](NC(=O)[C@@H](N)CCSC)CSCc2cccc(c2)CSC[C@@H](C(=O)N[C@@H](CCCNC(=N)N)C(=O)N[C@@H](CCC(=O)O)C(N)=O)NC1=O [Compound R2087, [mXylyl(2,6)]MCESICRE-NH2] (H-MCESICRE-NH2; linker 2-6 via mXylylene)
stdout: > 16.6 µM

stdin: Item CC(=O)N[C@@H](CS)C(=O)N[C@@H](CC(N)=O)C(=O)N[C@@H](Cc1ccc(O)cc1)C(=O)N[C@@H](Cc1c[nH]c2ccccc12)C(=O)N[C@@H](CO)C(=O)N1CCC[C@H]1C(=O)N[C@@H](Cc1c[nH]c2ccccc12)C(=O)N[C@H](C(=O)N(C)[C@@H](C)C(=O)N[C@@H](CS)C(N)=O)[C@@H](C)O [Compound R2234, Ac-CNYWSPWT-nMeA-C-NH2] (Ac-CNYWSPWT[NMeA]C-NH2) : provide IC50
stdout: 0.0027 µM

Just for reference, patent US9999650B2 is where these values come from.
